The following binders are listed with their measured IC50, inhibition of IL-3 dependent proliferation of TF-1 cells values.
Molecular target: human CD123 (IL-3Rα, interleukin-3 receptor alpha chain) (human, UniProt P26951 19-378)
Sequence (P26951 19-378): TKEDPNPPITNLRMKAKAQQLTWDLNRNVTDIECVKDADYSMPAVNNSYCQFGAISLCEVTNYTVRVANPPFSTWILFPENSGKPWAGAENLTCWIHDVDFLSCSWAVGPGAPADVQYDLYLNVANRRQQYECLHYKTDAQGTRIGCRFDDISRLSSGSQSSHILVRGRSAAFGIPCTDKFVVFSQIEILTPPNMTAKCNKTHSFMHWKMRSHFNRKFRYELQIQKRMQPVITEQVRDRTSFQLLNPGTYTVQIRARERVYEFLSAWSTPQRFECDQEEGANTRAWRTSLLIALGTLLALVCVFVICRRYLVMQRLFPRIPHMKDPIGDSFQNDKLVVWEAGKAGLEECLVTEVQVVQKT
Assay: cell-based or functional assay
Report the value in nM with no unit label.

Sample answers from the record:
binder="muCD123-14 (antibody, mouse IgG1, kappa, V domains shown, Murine monoclonal antibody purified from hybridoma supernatant; also called CD123Mu-14; CD123 Mu-14) VH: EVKLVESGGDLVKPGGSLKLSCAASGFTFSNYAMSWVRQNSEKRLEWVATINSGGSFTYYPDSVKGRFTISRDNAKDSLYLQMSSLNSEDTAMYYCARQSEAYYGYDKRTWFAYWGQGTLVTVSS VL: DILLTQSPAILSVSPGTRVSFSCRASQSVGTSIHWYQQRPNGFPRLLIKYASESISGIPSRFSGSGSGTDFTLNINSVESEDIADYYCQQSKSWPLTFGAGTKLELKR" data_value=0.08
binder="chCD123-6 (antibody, human IgG1, V domains shown, also called chimeric CD123-6 antibody) VH: EFQLQQSGPELVKPGASVKMSCKASGYIFTSSIMHWMKQKPGQGLEWIGYIKPYNDGTKYNEKFKGKATLTSDKSSSTANMELNSLTSEDSAVYYCAREGGNDYYDTMDYWGQGTSVTVSS VL: DIKMTQSPSSMYASLGERVTITCKASQDINSYLSWFQQKPGKSPKTLIYRVNRLVDGVPSRFSGSGSGQDYSLTISSLEYEDMGIYYCLQYDAFPYTFGGGTKLEIKR" data_value=0.02
binder="muCD123-3 (antibody, mouse IgG1, kappa, V domains shown, Murine monoclonal antibody purified from hybridoma supernatant; also called CD123Mu-3; CD123 Mu-3) VH: EFQLQQSGPEVVKPGASVKMSCKASGYTFTSYVMHWMKQKPGQGLEWIGYIKPYKDGTKYNEKFKGKATLISDKPSSTAYMELSSLTSEDSAVYYCAREGENGYYDAMDYWGQGTSVTVSS VL: DIQMTQSPSSLSASLGGKVTITCKASQDINKYIAWYQHKPGKGPRLLIHYTSTLQPGIPSRFSGSGSGRDYSFSISNLEPEDIATYYCLQYDNLLYTFGGGTKLELKR" data_value=0.26

Now consider a different binder.
IN: Form field: reported IC50, inhibition of IL-3 dependent proliferation of TF-1 cells of muCD123-6 (antibody, mouse IgG1, kappa, V domains shown, Murine monoclonal antibody purified from hybridoma supernatant; also called CD123Mu-6; CD123 Mu-6) VH: EFQLQQSGPELVKPGASVKMSCKASGYIFTSSIMHWMKQKPGQGLEWIGYIKPYNDGTKYNEKFKGKATLTSDKSSSTANMELNSLTSEDSAVYYCAREGGNDYYDTMDYWGQGTSVTVSS VL: DIKMTQSPSSMYASLGERVTITCKASQDINSYLSWFQQKPGKSPKTLIYRVNRLVDGVPSRFSGSGSGQDYSLTISSLEYEDMGIYYCLQYDAFPYTFGGGTKLEIKR
OUT: 0.05
